# Target desc: human GPR10 (Homo sapiens (Human))
# Sequence (P49683 whole entry): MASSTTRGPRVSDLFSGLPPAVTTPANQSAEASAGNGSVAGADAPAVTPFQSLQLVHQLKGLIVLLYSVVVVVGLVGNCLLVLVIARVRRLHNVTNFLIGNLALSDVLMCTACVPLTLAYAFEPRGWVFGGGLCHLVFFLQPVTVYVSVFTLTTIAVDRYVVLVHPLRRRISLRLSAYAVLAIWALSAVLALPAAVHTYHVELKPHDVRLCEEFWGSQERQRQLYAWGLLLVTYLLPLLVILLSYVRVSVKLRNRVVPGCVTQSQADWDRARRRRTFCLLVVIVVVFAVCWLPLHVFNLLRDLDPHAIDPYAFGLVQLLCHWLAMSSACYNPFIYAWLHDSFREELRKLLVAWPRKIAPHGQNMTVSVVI
# Procedure text: Antagonistic activity on PrRP-induced intracellular calcium mobilization in human GPR10-expressing HEK293 cells
# Particulars: PrRP 1 nM-induced intracellular calcium mobilization, Fluo-8
# Description: Pharmacological Test 2 Antagonistic Activity on GPR10 Using Human GPR10-Expressing HEK293 Cells. Antagonistic activity of test compounds on PrRP-induced intracellular calcium mobilization was evaluated using GPR10-expressing HEK293 cells. HEK293 cells expressing human GPR10 were maintained in Dulbecco's Modified Eagles' medium supplemented with 10% fetal bovine serum, 1% penicillin-streptomycin and 20 mM HEPES at 37° C. in a 5% CO2 incubator. […]
Where a name gives a salt, the structure may show the parent alone.
Provide the recorded pIC50 for the entries that follow.
One number for each entry, as −log10 of the molar value.

Quick note, pIC50 for C[C@H](Nc1nc2c(c(=O)n1N1CCOCC1)CN(C(=O)c1ccc(C#N)cc1F)CC2)c1ccc(C(F)(F)F)cc1 [Example 2463, hydrochloride] landed at 6.73

The recorded pIC50 for CC#CCn1c(N[C@@H](C)c2ccc(C(F)(F)F)cc2)nc2c(c1=O)CN(C(=O)c1ccc3c(c1)CCC(=O)N3)CC2 [Example 2412, hydrochloride] is 6.59

pIC50 for CCOn1c(N[C@H](C)c2ccc(C(F)(F)F)cc2)nc2c(c1=O)CN(C(=O)c1cc3cccnc3s1)CC2 is 5.77

Lab note: measured pIC50 of CC#CCn1c(N[C@@H](C)c2ccc(C(F)(F)F)cc2)nc2c(c1=O)CN(C(=O)c1ccc3ccccc3n1)CC2 was 5.47

Kindly note the recorded pIC50 for CCOn1c(N[C@H](C)c2ccc(C(F)(F)F)cc2)nc2c(c1=O)CN(C(=O)c1ccc(C#N)cc1)CC2 , which is 6.81

Briefly, pIC50 measured for CC#CCn1c(N[C@@H](C)c2ccc(C(F)(F)F)cc2)nc2c(c1=O)CN(C(=O)c1ccc(-n3ccnc3)cc1)CC2 [Example 2402, dihydrochloride] : 7.00

Reported pIC50 for C[C@H](Nc1nc2c(c(=O)n1N(C)C)CN(C(=O)c1ccc(Cl)cc1)CC2)c1ccc(Cl)cc1.Cl [Example 8, hydrochloride] was 6.60

Entry COn1c(N[C@@H](C)c2ccc(C(F)(F)F)cc2)nc2c(c1=O)CN(C(=O)/C=C/c1ccc(Cl)cc1)CC2 — recorded pIC50 = 5.24

# return pIC50 for each item in the list
1. C#CCn1c(N[C@@H](C)c2ccc(C(F)(F)F)cc2)nc2c(c1=O)CN(C(=O)c1ccc(C#N)cc1F)CC2 [Example 1, hydrochloride]
2. CCOn1c(N[C@H](C)c2ccc(C(F)(F)F)cc2)nc2c(c1=O)CN(C(=O)c1ccc(-c3cnco3)cc1)CC2
3. CC#CCn1c(N[C@@H](C)c2ccc(C(F)(F)F)cc2)nc2c(c1=O)CN(C(=O)c1cc3ccccn3n1)CC2 [Example 2411, hydrochloride]
4. CC#CCn1c(N[C@@H](C)c2ccc(C(F)(F)F)cc2)nc2c(c1=O)CN(C(=O)c1ccc(C#N)cc1)CC2 [Example 2407, hydrochloride]
5. COn1c(N[C@@H](C)c2ccc(C(F)(F)F)cc2)nc2c(c1=O)CN(C(=O)c1ccc(C)s1)CC2

**Result**
7.38
6.80
6.11
6.68
5.95
